# Experiment notes: activity coefficient (dimensionless); of the first substance listed, at infinite dilution; xn = mol fraction of the nth substance listed
# Experimental context: 338.15 K; 101 kPa; Liquid; Chromatography; x1 = 0
Just a reminder that ties go to Not fulfilled: only activity coefficient strictly below 6 counts as Fulfilled.

// known answers, use as guide
INSERT INTO assay_data (molecule, discrete_label) VALUES
  ('CCCCCCCC [octane] + CCCCC[N+]1(C)CCCCC1.O=S(=O)([N-]S(=O)(=O)C(F)(F)F)C(F)(F)F', 'Not fulfilled'),
  ('CCCCCCCCCC [decane] + CCCCCC[N+]1(C)CCCCC1.O=S(=O)([N-]S(=O)(=O)C(F)(F)F)C(F)(F)F', 'Not fulfilled');

API: the following record is the query input.
Could you please tell me whether activity coefficient recorded for CCCOCCC [dipropyl ether] + CCCCCC[N+]1(C)CCCCC1.O=S(=O)([N-]S(=O)(=O)C(F)(F)F)C(F)(F)F is less than 6?
Fulfilled

###

For each entry below, report its activity coefficient value.
# Experiment notes: activity coefficient (dimensionless); of the first substance listed, at infinite dilution; xn = mol fraction of the nth substance listed
# Experimental context: 358.15 K; 101 kPa; Liquid; Chromatography; x1 = 0
Give bare numbers.

Past entries and their recorded results:
INSERT INTO measurements (compound, result_number) VALUES
  ('CCc1ccccc1 [ethylbenzene] + CCCCCC[N+]1(C)CCCCC1.O=S(=O)([N-]S(=O)(=O)C(F)(F)F)C(F)(F)F', 0.969),
  ('CCCCO [butan-1-ol] + CCCCCC[N+]1(C)CCCCC1.O=S(=O)([N-]S(=O)(=O)C(F)(F)F)C(F)(F)F', 1.52),
  ('O [water] + CCCCC[N+]1(C)CCCCC1.O=S(=O)([N-]S(=O)(=O)C(F)(F)F)C(F)(F)F', 2.44),
  ('CCCOCCC [dipropyl ether] + CCCCC[N+]1(C)CCCCC1.O=S(=O)([N-]S(=O)(=O)C(F)(F)F)C(F)(F)F', 3.96);

Hey, quick one: what's activity coefficient for each of these?
1. c1ccccc1 [benzene] + CCCCCC[N+]1(C)CCCCC1.O=S(=O)([N-]S(=O)(=O)C(F)(F)F)C(F)(F)F
2. O [water] + CCCCCC[N+]1(C)CCCCC1.O=S(=O)([N-]S(=O)(=O)C(F)(F)F)C(F)(F)F
3. CCCCCCCC [octane] + CCCCC[N+]1(C)CCCCC1.O=S(=O)([N-]S(=O)(=O)C(F)(F)F)C(F)(F)F

0.73
2.45
13.7

###

For each record, write down the corresponding activity coefficient.
# Experiment notes: activity coefficient (dimensionless); of the first substance listed, at infinite dilution; xn = mol fraction of the nth substance listed
# Experimental context: 318.15 K; 101 kPa; Liquid; Chromatography; x1 = 0
Give bare numbers.

// for each compound in input: emit activity coefficient
1. CCC(C)(C)OC [2-methoxy-2-methylbutane] + CCCCCC[N+]1(C)CCCCC1.O=S(=O)([N-]S(=O)(=O)C(F)(F)F)C(F)(F)F
2. C1CCCC1 [cyclopentane] + CCCCCC[N+]1(C)CCCCC1.O=S(=O)([N-]S(=O)(=O)C(F)(F)F)C(F)(F)F
3. C1CCCCCCC1 [cyclooctane] + CCCCC[N+]1(C)CCCCC1.O=S(=O)([N-]S(=O)(=O)C(F)(F)F)C(F)(F)F
4. C=CCCCCCC [oct-1-ene] + CCCCCC[N+]1(C)CCCCC1.O=S(=O)([N-]S(=O)(=O)C(F)(F)F)C(F)(F)F

[2.14, 3.59, 9.58, 7.6]

###

# Experiment notes: activity coefficient (dimensionless); of the first substance listed, at infinite dilution; xn = mol fraction of the nth substance listed
# Experimental context: 318.15 K; 101 kPa; Liquid; Chromatography; x1 = 0
Metric name: activity coefficient
Numbers only.

INSERT INTO results (compound, result_number) VALUES
  ('CCCCCO [pentan-1-ol] + CCCCCC[N+]1(C)CCCCC1.O=S(=O)([N-]S(=O)(=O)C(F)(F)F)C(F)(F)F', 2.23),
  ('Cc1ccccc1 [toluene] + CCCCCC[N+]1(C)CCCCC1.O=S(=O)([N-]S(=O)(=O)C(F)(F)F)C(F)(F)F', 0.894),
  ('Cc1cccc(C)c1 [1,3-dimethylbenzene] + CCCCCC[N+]1(C)CCCCC1.O=S(=O)([N-]S(=O)(=O)C(F)(F)F)C(F)(F)F', 1.16),
  ('CO [methanol] + CCCCC[N+]1(C)CCCCC1.O=S(=O)([N-]S(=O)(=O)C(F)(F)F)C(F)(F)F', 1.32);

Hey, quick one: what's activity coefficient for each of these?
1. C1=CCCCC1 [cyclohexene] + CCCCCC[N+]1(C)CCCCC1.O=S(=O)([N-]S(=O)(=O)C(F)(F)F)C(F)(F)F
2. C#CCCCC [1-hexyne] + CCCCC[N+]1(C)CCCCC1.O=S(=O)([N-]S(=O)(=O)C(F)(F)F)C(F)(F)F
3. C=CCCCC [hex-1-ene] + CCCCCC[N+]1(C)CCCCC1.O=S(=O)([N-]S(=O)(=O)C(F)(F)F)C(F)(F)F
4. CCO [ethanol] + CCCCCC[N+]1(C)CCCCC1.O=S(=O)([N-]S(=O)(=O)C(F)(F)F)C(F)(F)F
5. C=CCCCCCCCC [1-decene] + CCCCC[N+]1(C)CCCCC1.O=S(=O)([N-]S(=O)(=O)C(F)(F)F)C(F)(F)F
6. C#CCCCC [1-hexyne] + CCCCCC[N+]1(C)CCCCC1.O=S(=O)([N-]S(=O)(=O)C(F)(F)F)C(F)(F)F

3
2.12
4.45
1.63
16.5
1.88

Can you give me activity coefficient for all of these, one by one?
1. CCCCC [pentane] + CCCCCC[N+]1(C)CCCCC1.O=S(=O)([N-]S(=O)(=O)C(F)(F)F)C(F)(F)F
2. CCCOCCC [dipropyl ether] + CCCCCC[N+]1(C)CCCCC1.O=S(=O)([N-]S(=O)(=O)C(F)(F)F)C(F)(F)F
3. CCCCC(C)=O [2-hexanone] + CCCCCC[N+]1(C)CCCCC1.O=S(=O)([N-]S(=O)(=O)C(F)(F)F)C(F)(F)F
4. Cc1ccccc1C [1,2-dimethylbenzene] + CCCCCC[N+]1(C)CCCCC1.O=S(=O)([N-]S(=O)(=O)C(F)(F)F)C(F)(F)F
5. O [water] + CCCCC[N+]1(C)CCCCC1.O=S(=O)([N-]S(=O)(=O)C(F)(F)F)C(F)(F)F

1. 5.73
2. 3.47
3. 0.706
4. 1.08
5. 4.19

###

# Experiment notes: activity coefficient (dimensionless); of the first substance listed, at infinite dilution; xn = mol fraction of the nth substance listed
# Experimental context: 328.15 K; 101 kPa; Liquid; Chromatography; x1 = 0
Hi there, I'd appreciate the recorded activity coefficient for every entry that follows.
Give bare numbers.

Worked examples follow.
INSERT INTO results (compound, result_number) VALUES
  ('CCCCCCC [heptane] + CCCCCC[N+]1(C)CCCCC1.O=S(=O)([N-]S(=O)(=O)C(F)(F)F)C(F)(F)F', 9.38),
  ('C#CCCC [1-pentyne] + CCCCCC[N+]1(C)CCCCC1.O=S(=O)([N-]S(=O)(=O)C(F)(F)F)C(F)(F)F', 1.48),
  ('CCC(C)(C)C [2,2-dimethylbutane] + CCCCCC[N+]1(C)CCCCC1.O=S(=O)([N-]S(=O)(=O)C(F)(F)F)C(F)(F)F', 6.12),
  ('Cc1ccc(C)cc1 [1,4-dimethylbenzene] + CCCCCC[N+]1(C)CCCCC1.O=S(=O)([N-]S(=O)(=O)C(F)(F)F)C(F)(F)F', 1.2),
  ('Cc1cccc(C)c1 [1,3-dimethylbenzene] + CCCCCC[N+]1(C)CCCCC1.O=S(=O)([N-]S(=O)(=O)C(F)(F)F)C(F)(F)F', 1.19),
  ('O [water] + CCCCC[N+]1(C)CCCCC1.O=S(=O)([N-]S(=O)(=O)C(F)(F)F)C(F)(F)F', 3.7),
  ('C#CCCCCCC [1-octyne] + CCCCC[N+]1(C)CCCCC1.O=S(=O)([N-]S(=O)(=O)C(F)(F)F)C(F)(F)F', 3.76),
  ('C#CCCCC [1-hexyne] + CCCCC[N+]1(C)CCCCC1.O=S(=O)([N-]S(=O)(=O)C(F)(F)F)C(F)(F)F', 2.14);

Could you report activity coefficient for every entry in the following list?
1. CC1CCCCC1 [methylcyclohexane] + CCCCCC[N+]1(C)CCCCC1.O=S(=O)([N-]S(=O)(=O)C(F)(F)F)C(F)(F)F
2. CCCOCCC [dipropyl ether] + CCCCCC[N+]1(C)CCCCC1.O=S(=O)([N-]S(=O)(=O)C(F)(F)F)C(F)(F)F
3. O [water] + CCCCCC[N+]1(C)CCCCC1.O=S(=O)([N-]S(=O)(=O)C(F)(F)F)C(F)(F)F

[5.83, 3.44, 3.81]

Go through the items and report each one's activity coefficient.
1. C1CCCCCC1 [cycloheptane] + CCCCCC[N+]1(C)CCCCC1.O=S(=O)([N-]S(=O)(=O)C(F)(F)F)C(F)(F)F
2. C#CCCCCC [1-heptyne] + CCCCCC[N+]1(C)CCCCC1.O=S(=O)([N-]S(=O)(=O)C(F)(F)F)C(F)(F)F
3. C1CCOC1 [tetrahydrofuran] + CCCCCC[N+]1(C)CCCCC1.O=S(=O)([N-]S(=O)(=O)C(F)(F)F)C(F)(F)F

1: 5.77; 2: 2.46; 3: 0.594
